molecular target: DRB1*0404 (Homo sapiens, UniProt P01903+P01911, A100R/A169T/F76Y/I96L/K127E/L162R/M171V/N62H/P40V/Q125Y/R42H/S133A/S149N/S66Y/V209L/W38E); experiment: biochemical; format: binding
// reported IC50 per item
measured_quantity: IC50 (µM)

>>> measured_number("CC[C@H](C)[C@H](NC(=O)[C@H](C)NC(=O)[C@H](CC(N)=O)NC(=O)[C@H](C)N)C(=O)N[C@@H](Cc1ccccc1)C(=O)N[C@@H](CCCCN)C(=O)N[C@@H](CC(C)C)C(=O)N[C@H](C(=O)N[C@@H](Cc1ccc(O)cc1)C(=O)N[C@@H](CCC(N)=O)C(=O)N[C@@H](CC(N)=O)C(=O)N[C@@H](CCCCN)C(=O)N[C@H](C(=O)N[C@H](C(=O)N[C@@H](CCCCN)C(=O)N[C@H](C(=O)N[C@@H](CCC(N)=O)C(=O)O)C(C)C)C(C)C)C(C)C)[C@@H](C)O")
4.81
>>> measured_number("CC[C@H](C)[C@H](NC(=O)[C@H](C)NC(=O)[C@H](CC(N)=O)NC(=O)[C@H](CO)NC(=O)[C@H](C)NC(=O)[C@H](CC(C)C)NC(=O)[C@H](CCCNC(=N)N)NC(=O)[C@H](CC(C)C)NC(=O)[C@H](CC(=O)O)NC(=O)[C@H](CCCNC(=N)N)NC(=O)[C@H](CCCNC(=N)N)NC(=O)[C@H](Cc1c[nH]cn1)NC(=O)[C@H](Cc1ccccc1)NC(=O)[C@H](Cc1ccc(O)cc1)NC(=O)[C@@H](N)CCSC)C(=O)O")
0.034
>>> measured_number("C[C@@H](O)[C@H](NC(=O)[C@H](CO)NC(=O)[C@H](CO)NC(=O)[C@H](Cc1c[nH]cn1)NC(=O)[C@H](CCC(=O)O)NC(=O)[C@H](CCC(=O)O)NC(=O)[C@@H](N)CCCCN)C(=O)N[C@@H](Cc1c[nH]c2ccccc12)C(=O)N[C@@H](Cc1c[nH]cn1)C(=O)N[C@@H](Cc1ccc(O)cc1)C(=O)N[C@@H](CC(=O)O)C(=O)N[C@@H](CC(=O)O)C(=O)N[C@@H](CCC(=O)O)C(=O)N[C@@H](CC(N)=O)C(=O)N1CCC[C@H]1C(=O)N[C@@H](Cc1ccc(O)cc1)C(=O)N[C@@H](CCCCN)C(=O)O")
18.2
>>> measured_number("CC[C@H](C)[C@H](NC(=O)[C@H](CC(C)C)NC(=O)[C@H](CCCNC(=N)N)NC(=O)CNC(=O)[C@@H](N)CC(N)=O)C(=O)N[C@H](C(=O)N[C@@H](C)C(=O)N[C@@H](CC(N)=O)C(=O)N1CCC[C@H]1C(=O)N[C@H](C(=O)N[C@H](C(=O)N[C@H](C(=O)N[C@@H](CCCCN)C(=O)N[C@@H](CCCCN)C(=O)N[C@@H](CCC(=O)O)C(=O)O)[C@@H](C)O)C(C)C)C(C)C)[C@@H](C)O")
15.3
>>> measured_number("CC[C@H](C)[C@H](NC(=O)[C@H](CCCCN)NC(=O)CNC(=O)[C@H](CCC(=O)O)NC(=O)[C@@H](NC(=O)[C@H](CS)NC(=O)[C@H](CC(C)C)NC(=O)[C@H](CCCCN)NC(=O)[C@H](CCCNC(=N)N)NC(=O)[C@H](CC(C)C)NC(=O)[C@@H](NC(=O)[C@H](C)NC(=O)[C@H](CC(C)C)NC(=O)[C@H](CCC(N)=O)NC(=O)[C@@H](N)[C@@H](C)O)[C@@H](C)O)[C@@H](C)CC)C(=O)O")
10.1

Every entry's value here was drawn from paper PMC3794980.
